- target_entity: PPARα (Homo sapiens, UniProt Q07869)
- Sequence (Q07869 whole entry): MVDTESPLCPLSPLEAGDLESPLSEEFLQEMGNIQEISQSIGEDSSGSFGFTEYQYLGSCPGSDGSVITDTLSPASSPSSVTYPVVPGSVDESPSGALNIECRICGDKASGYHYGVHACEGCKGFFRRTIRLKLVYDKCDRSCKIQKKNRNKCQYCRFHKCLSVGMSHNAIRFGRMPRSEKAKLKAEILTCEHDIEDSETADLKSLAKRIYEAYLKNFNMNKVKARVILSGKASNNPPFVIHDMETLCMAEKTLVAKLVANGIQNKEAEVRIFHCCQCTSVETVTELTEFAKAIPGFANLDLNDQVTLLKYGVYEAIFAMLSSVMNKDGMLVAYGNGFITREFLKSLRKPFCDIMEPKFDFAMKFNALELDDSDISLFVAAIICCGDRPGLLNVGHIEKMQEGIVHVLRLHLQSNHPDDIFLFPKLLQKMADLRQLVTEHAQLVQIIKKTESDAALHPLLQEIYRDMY
- assay_summary: SPR (OpenSPR) with recombinant human PPARα immobilized by amine coupling
endpoint_label: Kd (µM)
Write the value in µM as a bare number.

Please fill in: Kd reported for CCCCC(CC)COC(=O)c1ccccc1C(=O)O (stereo not shown) [MEHP, mono(2-ethylhexyl) phthalate] = 627

Hello, the source for this data is paper PMC8754100, in case you need it.
